system: MCF7; assay: Cytotoxicity primary screen (single dose); format: cell-based; conditions: Homo sapiens, single dose 25 μM, 48 h exposure, mean of triplicates, read-out: percentage of cell survival over DMSO control, MCF7
Just a reminder that ties go to Criterion not met: only viability at 25 µM strictly below 80% counts as Criterion met.

Answered examples (10):
| compound | tested-system | label |
| --- | --- | --- |
| c1ccc(Nc2ncc3ccc4ccccc4c3n2)cc1 [Compound 4a, N-phenylbenzo[h]quinazolin-2-amine] | MCF7 | Criterion met |
| Clc1cccc(Nc2ncc3ccc4ccccc4c3n2)c1 | MCF7 | Criterion met |
| Brc1cc(Br)cc(Nc2ncc3ccc4ccccc4c3n2)c1 | MCF7 | Criterion not met |
| Clc1ccc(Nc2ncc3ccc4ccccc4c3n2)cc1 | MCF7 | Criterion not met |
| Clc1cc(Br)cc(Nc2ncc3ccc4ccccc4c3n2)c1 | MCF7 | Criterion met |
| COc1ccc(Nc2ncc3ccc4ccccc4c3n2)cc1 | MCF7 | Criterion not met |
| Fc1cccc(Nc2ncc3ccc4ccccc4c3n2)c1 | MCF7 | Criterion met |
| Cc1cccc(Nc2ncc3ccc4ccccc4c3n2)c1 [Compound 4c, N-(m-tolyl)benzo[h]quinazolin-2-amine] | MCF7 | Criterion met |
| Fc1cc(Cl)cc(Nc2ncc3ccc4ccccc4c3n2)c1 | MCF7 | Criterion not met |
| Cc1cc(Nc2ncc3ccc4ccccc4c3n2)ccc1Br | MCF7 | Criterion not met |

Please state whether viability at 25 µM is below 80% for Fc1ccc(Nc2ncc3ccc4ccccc4c3n2)cc1F
Criterion not met

Is the reported viability at 25 µM for Clc1ccccc1Nc1ncc2ccc3ccccc3c2n1 strictly below 80%?
Criterion met

Dear reviewer, please state whether Fc1ccccc1Nc1ncc2ccc3ccccc3c2n1 has viability at 25 µM strictly beneath 80%.
Criterion not met

Please indicate whether the reported viability at 25 µM of Fc1cc(Nc2ncc3ccc4ccccc4c3n2)cc(F)c1F is strictly below 80%.
Criterion met

Input Cc1ccc(Nc2ncc3ccc4ccccc4c3n2)cc1 [Compound 4d, N-(p-tolyl)benzo[h]quinazolin-2-amine] ; condition: viability at 25 µM strictly below 80%. Does it hold?
Criterion met

Given Cc1ccccc1Nc1ncc2ccc3ccccc3c2n1 [Compound 4b, N-(o-tolyl)benzo[h]quinazolin-2-amine] , is recorded viability at 25 µM strictly lower than 80%?
Criterion met

----------
test system: MDA231; test: Cytotoxicity primary screen (single dose); format: cell-based; settings: Homo sapiens, MDA-MB-231; single dose 25 μM, 48 h exposure, mean of triplicates; read-out: percentage of cell survival over DMSO control, MDA231
assay-metric: viability at 25 µM (%)
Value expressed in %; do not type the unit.

| compound | readout-unit | viability at 25 µM |
| --- | --- | --- |
| Clc1cc(Br)cc(Nc2ncc3ccc4ccccc4c3n2)c1 [Compound 4q] | % | 41 |

Give the reported value of viability at 25 µM for this record: Fc1cc(Cl)cc(Nc2ncc3ccc4ccccc4c3n2)c1 [Compound 4p]
68

Indicate its recorded viability at 25 µM; the compound in question is Clc1ccc(Nc2ncc3ccc4ccccc4c3n2)cc1 [Compound 4m]
83

Give me measured viability at 25 µM, please, for this compound: COc1ccc(Nc2ncc3ccc4ccccc4c3n2)cc1 [Compound 4g]
87

Write down viability at 25 µM measured for item Cc1ccccc1Nc1ncc2ccc3ccccc3c2n1 [Compound 4b, N-(o-tolyl)benzo[h]quinazolin-2-amine]
86

----------
# Lookup of reported percentage of cell survival over DMSO control, CaCo-2 keyed by entry
test system: Caco-2; test: Cytotoxicity primary screen (single dose); format: cell-based; conditions: single dose 25 μM, 48 h exposure, mean of triplicates
# include the unit after the value

Check out these entries, answers already filled in.
| compound | observed-value |
| --- | --- |
| c1ccc(Nc2ncc3ccc4ccccc4c3n2)cc1 [Compound 4a, N-phenylbenzo[h]quinazolin-2-amine] | 33% |
| COc1ccc(Nc2ncc3ccc4ccccc4c3n2)cc1 | 81% |
| Cc1cc(Nc2ncc3ccc4ccccc4c3n2)ccc1Br | 76% |

Output percentage of cell survival over DMSO control, CaCo-2 of Cc1cccc(Nc2ncc3ccc4ccccc4c3n2)c1 [Compound 4c, N-(m-tolyl)benzo[h]quinazolin-2-amine]
50%

----------
system: Caco-2; experiment: Cytotoxicity secondary screen (IC50); format: cell-based; details: Homo sapiens, 48 h exposure, mean of triplicates, NE: no effect
Measured IC50 accompanies every entry in the list below.
Provide only the numeric value, understood in µM.

Example results:
| compound | IC50 [µM] |
| --- | --- |
| COc1ccccc1Nc1ncc2ccc3ccccc3c2n1 | 20 |
| Brc1cc(Br)cc(Nc2ncc3ccc4ccccc4c3n2)c1 | 16 |
| CC(=O)O[C@H]1C(=O)[C@@]2(C)[C@H]([C@H](OC(=O)c3ccccc3)[C@]3(O)C[C@H](OC(=O)[C@H](O)[C@@H](NC(=O)c4ccccc4)c4ccccc4)C(C)=C1C3(C)C)[C@]1(OC(C)=O)CO[C@@H]1C[C@@H]2O [Taxol, reference compound] | 0.07 |
| c1ccc(Nc2ncc3ccc4ccccc4c3n2)cc1 [Compound 4a, N-phenylbenzo[h]quinazolin-2-amine] | 4.7 |
| Clc1cccc(Nc2ncc3ccc4ccccc4c3n2)c1 | 17 |

Attention now shifts to the item below.
Supply reported IC50 belonging to this compound: Fc1ccccc1Nc1ncc2ccc3ccccc3c2n1
4.6

----------
test system: MCF7; assay: Cytotoxicity secondary screen (IC50); format: cell-based; conditions: Homo sapiens, 48 h exposure, mean of triplicates, NE: no effect
Quick reference for pIC50 among some compounds
Reminder that pIC50 means the negative base-10 logarithm of the concentration expressed in mol/L.

Here's what some known entries look like.
| compound | pIC50 |
| --- | --- |
| Clc1cc(Br)cc(Nc2ncc3ccc4ccccc4c3n2)c1 [Compound 4q] | 4.85 |
| COc1ccccc1Nc1ncc2ccc3ccccc3c2n1 [Compound 4e] | 4.66 |
| Clc1cccc(Nc2ncc3ccc4ccccc4c3n2)c1 [Compound 4l] | 4.74 |

Tell us which pIC50 value is on record for CC(=O)O[C@H]1C(=O)[C@@]2(C)[C@H]([C@H](OC(=O)c3ccccc3)[C@]3(O)C[C@H](OC(=O)[C@H](O)[C@@H](NC(=O)c4ccccc4)c4ccccc4)C(C)=C1C3(C)C)[C@]1(OC(C)=O)CO[C@@H]1C[C@@H]2O [Taxol, reference compound]
7.70

Tell me measured pIC50 for c1ccc(Nc2ncc3ccc4ccccc4c3n2)cc1 [Compound 4a, N-phenylbenzo[h]quinazolin-2-amine] please.
4.89

----------
Overview of reported viability at 25 µM across a group of compounds:
Test system: MCF7
Assay: Cytotoxicity primary screen (single dose)
Assay type: cell-based
Conditions: Homo sapiens, single dose 25 μM, 48 h exposure, mean of triplicates, read-out: percentage of cell survival over DMSO control, MCF7
Description: Next, we performed a cytotoxicity screening of the nineteen molecules 4a–s, at 25 μM, investigating seven representative cancer cell lines: hepatocellular carcinoma HuH-7, colorectal adenocarcinoma CaCo-2, breast carcinoma MDA-MB-231 and MDA-MB-468, colorectal carcinoma HCT-116, prostate carcinoma PC3 and breast carcinoma MCF7. […] The toxicity is expressed as the percentage of cell survival (from 100 % to 0 %) over DMSO control after 48 h exposure (mean of triplicates). […]
Write the value in % as a bare number.

Past entries and their recorded results:
| entry-smiles | tested-system | readout-unit | observed-value |
| --- | --- | --- | --- |
| COc1cccc(Nc2ncc3ccc4ccccc4c3n2)c1 | MCF7 | % | 78 |
| COc1ccccc1Nc1ncc2ccc3ccccc3c2n1 | MCF7 | % | 82 |

The record that follows has no viability at 25 µM shown yet.
Indicate the recorded viability at 25 µM value for this compound: Fc1ccc(Nc2ncc3ccc4ccccc4c3n2)cc1
81

----------
Reported viability at 25 µM values are given for each entry in this list.
system: MDA231; assay: Cytotoxicity primary screen (single dose); type: cell-based; conditions: Homo sapiens, MDA-MB-231; single dose 25 μM, 48 h exposure, mean of triplicates; read-out: percentage of cell survival over DMSO control, MDA231
Answer with a number only, understood to be in %.

| compound | observed-value |
| --- | --- |
| Fc1ccc(Nc2ncc3ccc4ccccc4c3n2)cc1 | 91 |
| COc1cccc(Nc2ncc3ccc4ccccc4c3n2)c1 | 77 |
| Fc1cc(Nc2ncc3ccc4ccccc4c3n2)cc(F)c1F | 78 |

Now for the compound whose viability at 25 µM we want.
Provide viability at 25 µM, recorded with MDA231, of Cc1ccc(Nc2ncc3ccc4ccccc4c3n2)cc1 [Compound 4d, N-(p-tolyl)benzo[h]quinazolin-2-amine]
67

----------
Reported pIC50 values follow for various molecules
test system: Caco-2; assay: Cytotoxicity secondary screen (IC50); format: cell-based; conditions: Homo sapiens, 48 h exposure, mean of triplicates, NE: no effect
Just so you know, pIC50 here is -log10 of the concentration in molar units; reply with that number alone.

| molecule | pIC50 |
| --- | --- |
| Clc1cc(Br)cc(Nc2ncc3ccc4ccccc4c3n2)c1 | 4.85 |
| Fc1cccc(Nc2ncc3ccc4ccccc4c3n2)c1 | 5.70 |
| Cc1cccc(Nc2ncc3ccc4ccccc4c3n2)c1 [Compound 4c, N-(m-tolyl)benzo[h]quinazolin-2-amine] | 4.55 |

Find the measured pIC50 of COc1cccc(Nc2ncc3ccc4ccccc4c3n2)c1 with Caco-2 as test system.
5.37
